Experiment: Pharmacokinetic study of the Q-markers in beagle dogs
Settings: beagle, dog, plasma, po
measured_metric: bioavailability (%)

[
  {
    "molecule": "COc1c2ccoc2c(OC[C@@H](O)C(C)(C)O)c2oc(=O)ccc12 [Byakangelicin, byakangelicin]",
    "obs_value": 3.81
  }
]

a. COc1cc2c(cc1OC)[C@H]1[C@@H](C)c3ccc(OC)c(OC)c3CN1CC2 [Corydaline, corydaline]
b. COc1cc2c(cc1OC)[C@@H]1Cc3ccc(OC)c(OC)c3CN1CC2 [Tetrahydropalmatine, tetrahydropalmatine]
Lower bioavailability: a or b ? Answer = label. a

---

Test: Pharmacokinetic study of the Q-markers in beagle dogs
Conditions: beagle, dog, plasma, iv
measured_metric: Tmax (min)

[
  {
    "molecule": "COc1cc2c(cc1OC)[C@H]1[C@@H](C)c3ccc(OC)c(OC)c3CN1CC2",
    "Tmax [min]": 5
  },
  {
    "molecule": "COc1cc2c(cc1OC)[C@@H]1Cc3ccc(OC)c(OC)c3CN1CC2 [Tetrahydropalmatine, tetrahydropalmatine]",
    "Tmax [min]": 5
  },
  {
    "molecule": "COc1c2ccoc2c(OC[C@@H](O)C(C)(C)O)c2oc(=O)ccc12",
    "Tmax [min]": 5
  }
]
